Where do the numbers come from? From patent US20190106487A1.

The following binders are shown together with reported functional reporter gene assay (% inhibition), 1 µg/mL mAb values.
Biological target: T1, human IL-1RAcP on 293T/17-FR cells (human, UniProt Q9NPH3 21-570)
T1 sequence (looked up): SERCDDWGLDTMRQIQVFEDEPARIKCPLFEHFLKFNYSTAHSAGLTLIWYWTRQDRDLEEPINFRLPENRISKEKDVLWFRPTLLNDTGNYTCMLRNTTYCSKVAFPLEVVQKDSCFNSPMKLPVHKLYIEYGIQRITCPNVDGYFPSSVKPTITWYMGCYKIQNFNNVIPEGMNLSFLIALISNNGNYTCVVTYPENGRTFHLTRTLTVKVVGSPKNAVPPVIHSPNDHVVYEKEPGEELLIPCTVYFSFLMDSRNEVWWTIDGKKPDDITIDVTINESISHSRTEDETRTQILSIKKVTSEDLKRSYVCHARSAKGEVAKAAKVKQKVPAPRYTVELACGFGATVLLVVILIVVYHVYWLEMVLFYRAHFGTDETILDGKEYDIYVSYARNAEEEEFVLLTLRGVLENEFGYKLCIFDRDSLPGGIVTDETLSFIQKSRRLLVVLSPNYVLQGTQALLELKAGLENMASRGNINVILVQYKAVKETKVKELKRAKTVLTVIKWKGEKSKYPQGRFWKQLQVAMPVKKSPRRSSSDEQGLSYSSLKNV
Test: cell-based or functional assay
Give the value in % but do not write % after it.

As a guide, the following entries are already answered.
P013.S.02.B.D05 (antibody, V domains shown, rabbit monoclonal antibody; also called P013.A.00086.B09) VH: QQQLVESGGGLVKPGASLTLTCKASGFSFSSGYYMCWVRQAPGKGLEWIACIGMGSGKTYYASWAKGRFTISKTSSTTVTLQMTSLTAADTATYFCARKDGSGNEHYNLWGPGTLVTVSS VL: DIVMTQTPASVEAAVGGTVTIRCQASQSISSYLAWYQRKPGQPPKVLIYKASTLASGVSSRFKGSGSGTEYTLTISDLESADAATYYCQQGYASSGVDNVFGGGTEVVVK	20
P013.S.02.B.D01 (antibody, V domains shown, rabbit monoclonal antibody; also called P013.A.00141.G02) VH: LEQSGGGAEGGLVKPGGSLELCCKASGFSLSSNYWMCWVRQAPGKGLEWIGCIYAGSSDSTYYASWVNGRFTLSRDIDQSTGCLQLNSLTAADTAMYYCASPGYGGYGYYGLWGQGTLVTVSS VL: ALVMTQTPSPVSAAVGGTVTINCQASEDIYSNLAWFQQKPGQPPKLLIYDASTLASGVPSRFSGSGSGTEFTLTISGLQSDDAATYYCLGVYTYISPDGTDNAFGGGTEVVVK	54

In the following, a different binder is considered.
Query: Which functional reporter gene assay (% inhibition), 1 µg/mL mAb value is on record for P013.S.02.B.D04 (antibody, V domains shown, rabbit monoclonal antibody; also called P013.A.00086.A06) VH: QSLEESGGDLVQPGGSLTLTCKASGFSFSASYWICWVRQAPGKGLEWIGCIYIGGGGRYYASWAKGRFTISKTSSTTVTLQMTSLTAADTATYFCARDPVTSGSDYVYDLWGPGTLVTVAS VL: AYDMTQTPASVEVAVGGTVTIKCQASESISTWLAWYQQKPGQPPNLLIYRASTLASGVPSRFYGSGYGTEFTLTISGVESADAATYYCQQGYTVNNIDNVFGGGTEVVVK ?
Result: 47
